experimental.target: Amine oxidase [flavin-containing] A (Homo sapiens, UniProt P21397); further: assay procedure not described here
Sequence (P21397 whole entry): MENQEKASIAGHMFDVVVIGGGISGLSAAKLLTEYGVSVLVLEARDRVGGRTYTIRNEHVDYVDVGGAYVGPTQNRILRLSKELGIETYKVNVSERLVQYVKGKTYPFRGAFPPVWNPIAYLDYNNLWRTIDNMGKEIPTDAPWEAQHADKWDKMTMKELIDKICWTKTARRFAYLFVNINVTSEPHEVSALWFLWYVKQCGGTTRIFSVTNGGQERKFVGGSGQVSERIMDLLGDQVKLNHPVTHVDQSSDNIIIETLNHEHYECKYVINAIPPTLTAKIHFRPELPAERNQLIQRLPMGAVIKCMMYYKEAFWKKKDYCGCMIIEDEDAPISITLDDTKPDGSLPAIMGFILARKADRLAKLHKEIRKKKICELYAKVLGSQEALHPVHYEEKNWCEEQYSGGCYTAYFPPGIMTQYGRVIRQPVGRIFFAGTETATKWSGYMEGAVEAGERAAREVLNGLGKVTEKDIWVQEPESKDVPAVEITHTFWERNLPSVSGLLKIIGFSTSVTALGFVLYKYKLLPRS
Assay type: functional
Task for the reader: assign each of the following compounds its reported AC50.

compound	experimental.value
NC[C@H]1O[C@H](O[C@H]2[C@H](O)[C@@H](O[C@H]3O[C@H](CO)[C@@H](O)[C@H](N)[C@H]3O)[C@H](N)C[C@@H]2N)[C@H](O)[C@@H](O)[C@@H]1O	> 30 µM

Each compound below has a reported value. Please supply its AC50.
1. CN1CCCN=C1COC(=O)C(O)(c1ccccc1)C1CCCCC1 (configuration not stated)
2. N[C@@H](C(=O)N[C@@H]1C(=O)N2C(C(=O)O)=C(Cl)CS[C@H]12)c1ccccc1 [CEFACLOR ANHYDROUS]

> 10 µM
> 30 µM

FYI, the data here is from ChEMBL document CHEMBL5291721.
